Molecular target: DLG1_1, Q12959
Assay: holdup assay
Set-up: key: below the threshold = too weak to quantify, mostly under pKd 3.1 to 4
Conditions: plain residues with an end cap or a label only (N-terminal biotin on a linker: ado-ado)
Assay metric: pKd

> print(dat)
                         binder  observed.measurement
1  SFISKKEWYV [NECTIN1, Q15223]                   3.6
2    REEPDHSTEV [CCRL2, O00421]                  4.49
3  PTPDLPQTRV [KLHDC7A, Q5VTJ3]   below the threshold
4   EKCGKEFSEF [PRKACA, P17612]   below the threshold

Query string: # get_value(readout='pKd', item= DTKNYKQTSV [CRIPT, Q9P021] )
Result string: 4.35

Query string: # get_value(readout='pKd', item= RFQQRMQTHV [KIRREL1, Q96J84] )
Result string: 4.17

Query string: # get_value(readout='pKd', item= DPAESMESLV [PTPRG, P23470] )
Result string: 4.45

Query string: # get_value(readout='pKd', item= QKAPTKEFYA [SDC2, P34741] )
Result string: below the threshold
